Where a name gives a salt, the structure may show the parent alone.

- COMPOUND: "CC1(c2cccc(NS(C)(=O)=O)c2)C2CN(CCCc3ccccc3)CC21 (stereo not drawn) (as salt: toluenesulfonate)"
  melting point: "182 to 184 °C"
- COMPOUND: "CC1(c2cccc(NS(C)(=O)=O)c2)C2CN(CCCc3ccccc3)CC21 (stereo not drawn) (as salt: tartrate)"
  melting point: "162 to 164 °C"
- COMPOUND: "CC1(c2cccc(NS(C)(=O)=O)c2)C2CN(Cc3ccccc3)CC21 (stereo not drawn) [Example 22]"
  melting point: "117 to 118 °C"
- COMPOUND: "CC1(c2cccc(NS(C)(=O)=O)c2)C2CN(CCc3ccc(C(F)(F)F)cc3)CC21 (stereo not drawn)"
  melting point: "159 to 161 °C"
- COMPOUND: "CC1(c2cccc(NS(C)(=O)=O)c2)C2CN(CCCc3ccccc3)CC21 (stereo not drawn) (as salt: hydrochloride)"
  melting point: "212 to 214 °C"
- COMPOUND: "CC1(c2cccc(NS(C)(=O)=O)c2)C2CN(CCCc3ccccc3)CC21 (stereo not drawn) (as salt: benzenesulfonate)"
  melting point: "166 to 168 °C"
